Entries with reported Ki on α7-nAChR (Rattus norvegicus (Rat), UniProt Q05941)
Sequence (Q05941 23-502 limits assumed): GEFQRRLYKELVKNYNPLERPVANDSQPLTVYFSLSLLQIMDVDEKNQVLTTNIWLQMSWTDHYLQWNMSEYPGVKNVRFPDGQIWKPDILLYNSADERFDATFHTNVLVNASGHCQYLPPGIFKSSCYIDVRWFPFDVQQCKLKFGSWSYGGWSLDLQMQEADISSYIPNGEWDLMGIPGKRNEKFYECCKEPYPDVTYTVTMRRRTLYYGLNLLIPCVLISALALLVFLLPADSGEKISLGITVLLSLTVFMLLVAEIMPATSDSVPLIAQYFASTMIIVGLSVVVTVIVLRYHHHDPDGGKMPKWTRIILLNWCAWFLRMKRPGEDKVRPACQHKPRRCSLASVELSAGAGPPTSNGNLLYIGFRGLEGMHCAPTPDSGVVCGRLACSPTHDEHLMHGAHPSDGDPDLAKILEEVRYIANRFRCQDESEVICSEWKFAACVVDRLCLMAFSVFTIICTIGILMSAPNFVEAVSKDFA
Structures can show the parent of a compound that is named as a salt.
One number for each entry, in nM.

Reference set, count: 3
> print(dat)
                                   compound  reportedvalue
1  CC(=O)Nc1ccc2cc(C(=O)N[C@H]3CN4CCC3CC4)sc2c1 [Example 88, hydrochloride]             28
2  O=C(N[C@H]1CN2CCC1CC2)c1cc2cccc([N+](=O)[O-])c2o1             63
3  O=C(N[C@@H]1CN2CCC1CC2)c1cc2cccc(F)c2s1 [Example 59, hydrochloride]             20

List the reported Ki of each compound below.
1. Nc1ccc2sc(C(=O)N[C@H]3CN4CCC3CC4)cc2c1 [Example 62, dihydrochloride]
2. COc1cccc2cc(C(=O)N[C@H]3CN4CCC3CC4)sc12 [Example 76, hydrochloride]
3. O=C(N[C@H]1CN2CCC1CC2)c1cc2cc(F)cc(F)c2s1 [Example 80, hydrochloride]
4. Nc1ccc2cc(C(=O)N[C@H]3CN4CCC3CC4)sc2c1 [Example 73, dihydrochloride]
5. O=C(N[C@@H]1CN2CCC1CC2)c1cc2cccc(C(F)(F)F)c2s1 [Example 65, hydrochloride]

Output line:
1. 50
2. 6.7
3. 31
4. 2.8
5. 55

List the reported Ki of each compound below.
1. O=C(N[C@H]1CN2CCC1CC2)c1cc2ccc3ccccc3c2o1 [Example 48, hydrochloride]
2. COc1cccc2cc(C(=O)N[C@H]3CN4CCC3CC4)oc12 [Example 19, hydrochloride]
3. COc1cccc2cc(C(=O)N[C@@H]3CN4CCC3CC4)sc12 [Example 77, hydrochloride]
4. O=C(N[C@H]1CN2CCC1CC2)c1cc2c(F)cccc2s1 [Example 78, hydrochloride]
5. Nc1cccc2cc(C(=O)N[C@H]3CN4CCC3CC4)oc12
6. O=C(N[C@H]1CN2CCC1CC2)c1cc2cc(F)ccc2o1 [Example 42, hydrochloride]
7. Nc1cccc2cc(C(=O)N[C@H]3CN4CCC3CC4)sc12 [Example 68, dihydrochloride]

Output line:
1. 75
2. 42
3. 20
4. 80
5. 80
6. 37
7. 2
